Here, each record is paired with measured growth data.
# Test system: SNB-75 CNS
# Assay protocol: NCI-60 one-dose screen, 48 h (100 = growth as untreated, 0 = no growth, -100 = all killed)
# Particulars: 10 µM unless noted
Compounds without any hit were thinned out: in the full panel of roughly 83,000, 20% have a hit.
Kindly provide the numeric value in % only, without the unit symbol.

| Compound | Value observed |
| --- | --- |
| N#CC(C#N)=C(C#N)C#N | 87.7 |

query: // lookup growth for COc1ccc(N)cc1N
result: 88.7

====

Here, each record is paired with measured growth data.
# Tested on: SF-539 CNS
# Assay protocol: NCI-60 one-dose screen, 48 h (100 = growth as untreated, 0 = no growth, -100 = all killed)
# Particulars: 10 µM unless noted
About 83,000 compounds went through this panel and 20% of them were active in at least one assay; those are over-represented in the sample as a whole.
Kindly provide the numeric value in % only, without the unit symbol.

| Molecule | Assay target | Unit | growth |
| --- | --- | --- | --- |
| COCC1OC2OC3C(COC)OC(OC4C(COC)OC(OC5C(COC)OC(OC6C(COC)OC(OC7C(COC)OC(OC8C(COC)OC(OC1C(O)C2O)C(O)C8O)C(O)C7O)C(O)C6O)C(O)C5O)C(O)C4O)C(O)C3O (stereo unspecified) (tested in a mixture with another compound) | SF-539 CNS | % | 111 |

query: // lookup growth for NC1CN2CCC1CC2 (stereo unspecified)
result: 95.6

query: // lookup growth for CNC(=O)CCl
result: 102
